# MEASUREMENT_TARGET: T1, human glycophorin A on human red blood cells or red blood cell membranes (human, UniProt P02724 20-150)
# T1 construct: whole, on cells; also called hRBC; human RBC membranes
# T1 sequence (looked up): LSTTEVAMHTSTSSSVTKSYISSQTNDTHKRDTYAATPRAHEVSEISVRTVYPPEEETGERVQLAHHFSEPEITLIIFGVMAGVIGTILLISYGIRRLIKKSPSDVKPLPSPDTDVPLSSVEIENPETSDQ
# PROCEDURE_SUMMARY: scFv 7 ug/ml on intact human RBC, unbound scFv by ELISA; pre-dilution
OBSERVABLE: percentage of input scFv antibody bound (%)
Your answer is read as %, so omit the unit and give the number.

So for TPP-7797 scFv with C-terminal 6xHIS tag (scFv) scFv: DIQLTQSPSFLSASVGDRVTITCRASSSVRYIYWFQQKPGKAPKLLIYATSFRQSGVPSRFSGSGSGTEYTLTISSLQPEDFATYYCHQRNSFPYTFGQGTKLEIKGGGGSGGGGSGGGGSGGGGSEVQLVQSGAEVKKPGASVKVSCKASGYTFTTYTIHWVRQAPGQGLEWMGYINPSSGYTRYNPKFKGRVTMTRDKSTSTAYMELRSLRSDDTAVYYCWTGRRDYWGQGTTVTVSSHHHHHH , the logged percentage of input scFv antibody bound turned out to be 98

So for TPP-7790 scFv with C-terminal 6xHIS tag (scFv) scFv: DIQLTQSPSFLSASVGDRVTITCRASSSVRYIYWFQQKPGKAPKLLIYATSFLQSGVPSRFSGSGSGTEYTLTISSLQPEDFATYYCHQRNSFPYTFGQGTKLEIKGGGGSGGGGSGGGGSGGGGSEVQLVQSGAEVKKPGASVKVSCKASGYTFTTYAIHWVRQAPGQGLEWMGYINPSSGYTRYNPKFKHRVTMTRDKSTSTAYMELRSLRSDDTAVYYCWTGTRDYWGQGTTVTVSSHHHHHH , the logged percentage of input scFv antibody bound turned out to be 99
